Hey, just so you know, these numbers are from the RNAGym collection of RNA variant scans (doi:10.1093/nar/gkz1192).

B1: CPEB3 Ribozyme (parent)
chain: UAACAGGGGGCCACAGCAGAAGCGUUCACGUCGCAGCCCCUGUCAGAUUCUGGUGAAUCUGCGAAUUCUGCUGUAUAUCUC

Variants of: B1
TEST_DESCRIPTION: self-cleavage, relative activity (ratio to wild type); higher = more cleavage; in vitro, sequencing
Binning scheme for self-cleavage: bottom range: < 0.2; center range: ≥ 0.2 and < 0.9; top range: ≥ 0.9

Inquiry: Dear colleague, I would appreciate it if you could identify the bin for G7A G24A and reply at your convenience.
Reply text: bottom range

Inquiry: Follow-up item: A3U U31C
Reply text: top range

Inquiry: Input A13G U72G
Reply text: center range

Inquiry: What about this variant? A21C U74C
Reply text: bottom range

Inquiry: Item: G19C U60C
Reply text: bottom range

Inquiry: Same again, this time with A28U U78G
Reply text: top range

Inquiry: Now consider C12U A56G and answer again.
Reply text: top range

Inquiry: Now consider U43G U54A and answer again.
Reply text: center range

Inquiry: What do you get for A3G C27G ?
Reply text: center range
